- assay protocol: Volume of distribution at steady state in Wistar rat at 2 mg/kg, iv
- Type: ADME, organism-based
- Parameters: dose 2 mg/kg, route intravenous
- measurement conditions: in vivo, read-out: Vdss
property label: Vd (L/kg)
Numbers only, in L/kg.

Task: Give the reported Vd for this molecule. O=C(N[C@@H]1CCC[C@H](O)C1)c1noc(-c2ccc(F)c(F)c2)c1Cl
Output: 1

---

- assay protocol: Tmax in Wistar rat at 10 mg/kg, po
- Format: ADME, organism-based
- Set-up: dose 10 mg/kg, route oral
- measurement conditions: in vivo
property label: Tmax (h)
Answers are plain numbers, in h.

compound smiles | test value
O=C(N[C@@H]1CCC[C@H](O)C1)c1noc(-c2ccc(C(F)(F)F)cc2)c1Cl | 4

Attention now shifts to the item below.
Task: Supply Tmax value. Item: O=C(N[C@@H]1CCC[C@H](O)C1)c1noc(-c2ccc(F)c(F)c2)c1Cl
Output: 2.2

Values from ChEMBL document CHEMBL1667818
